Assay: soluble on expression in E. coli; label from the status in PepcDB or PDB records
Quantity Name: soluble on expression in E. coli

Residue Codes	Result
MKENDLIPNVKVMIDVRNMNNISDTDGSPNDFTSIDTHELFNNKKILLISLPGAFTPTCSTKMIPGYEEEYDYFIKENNFDDIYCITNNDIYVLKSWFKSMDIKKIKYISDGNSSFTDSMNMLVDKSNFFMGMRPWRFVAIVENNILVKMFQEKDKQHNIQTDPYDISTVNNVKEFLKNNQL	soluble
MKKEKAIVVFSGGQDSTTCLLWALKEFEEVETVTFHYNQRHSQEVEVAKSIAEKLGVKNHLLDMSLLNQLAPNALTRNDIEIEVKDGELPSTFVPGRNLVFLSFASILAYQIGARHIITGVCETDFSGYPDCRDEFVKSCNVTVNLAMEKPFVIHTPLMWLNKAETWKLADELGALDFVKNNTLTCYNGIIADGCGECPACHLRSKGYEEYMVMKGERA	soluble
